# System: Streptococcus pyogenes
# protocol-description: MIC by NCCLS reference broth microdilution, 450 respiratory tract pathogens
# Format: cell-based
# measurement-setup: Streptococcus pyogenes, erythromycin resistant C phenotype [MLSB] (n = 20)
// values below are reported MIC90
Please state the figure in µg/mL; there is no need to write the unit.

NC1CCN(c2c(F)cc3c(=O)c(C(=O)O)cn(C4CC4)c3c2Cl)C1 (stereo not drawn) | 0.12

GET /value?item= `CO/N=C(\C(=O)N[C@@H]1C(=O)N2C(C(=O)O)=C(COC(N)=O)CS[C@H]12)c1ccco1` &field=MIC90 returns 0.015

GET /value?item= `C[C@H]1COc2c(N3CCN(C)CC3)c(F)cc3c(=O)c(C(=O)O)cn1c23` &field=MIC90 returns 0.25

GET /value?item= CO/N=C1\CN(c2nc3c(cc2F)c(=O)c(C(=O)O)cn3C2CC2)CC1CN (racemic) &field=MIC90 returns 0.015

GET /value?item= `N[C@@H]1[C@H]2CN(c3nc4c(cc3F)c(=O)c(C(=O)O)cn4-c3ccc(F)cc3F)C[C@@H]12` &field=MIC90 returns 0.12

GET /value?item= `C[C@@H]1CN(c2c(F)c(N)c3c(=O)c(C(=O)O)cn(C4CC4)c3c2F)C[C@H](C)N1` &field=MIC90 returns 0.25

----------
// values below are reported MIC
# System: Staphylococcus aureus
# protocol-description: MIC by NCCLS reference broth microdilution, 450 respiratory tract pathogens
# Format: cell-based
# measurement-setup: β-lactamase negative (n = 20)

Worked set:
CO/N=C1\CN(c2nc3c(cc2F)c(=O)c(C(=O)O)cn3C2CC2)CC1CN (racemic) | 0.06 to 0.12 mg/L
N[C@@H]1[C@H]2CN(c3nc4c(cc3F)c(=O)c(C(=O)O)cn4-c3ccc(F)cc3F)C[C@@H]12 | 0.00375 to 0.25 mg/L
C[C@H]1COc2c(N3CCN(C)CC3)c(F)cc3c(=O)c(C(=O)O)cn1c23 | 0.03 to 2 mg/L
COc1c(N2C[C@@H]3CCCN[C@@H]3C2)c(F)cc2c(=O)c(C(=O)O)cn(C3CC3)c12 | 0.06 to 0.5 mg/L
NC1CCN(c2c(F)cc3c(=O)c(C(=O)O)cn(C4CC4)c3c2Cl)C1 (centres unmarked) | 0.06 to 0.25 mg/L
O=C(O)c1cn(C2CC2)c2cc(N3CCNCC3)c(F)cc2c1=O | 0.06 to 4 mg/L

GET /value?item= `CO/N=C(\C(=O)N[C@@H]1C(=O)N2C(C(=O)O)=C(COC(N)=O)CS[C@H]12)c1ccco1` &field=MIC returns 0.0075 to 0.25 mg/L

GET /value?item= `C[C@@H]1CN(c2c(F)c(N)c3c(=O)c(C(=O)O)cn(C4CC4)c3c2F)C[C@H](C)N1` &field=MIC returns 0.06 to 1 mg/L

----------
# Tested on: Salmonella spp.
# protocol-description: MIC by agar dilution (NCCLS M7-A4), 288 enteropathogenic isolates, eight quinolones
# Format: cell-based
# measurement-setup: Salmonella spp. (n = 106)
// values below are reported MIC90
Please state the figure in µg/mL; there is no need to write the unit.

Worked set:
CC1COc2c(N3CCN(C)CC3)c(F)cc3c(=O)c(C(=O)O)cn1c23 (stereo not drawn) | 0.5
CO/N=C1\CN(c2nc3c(cc2F)c(=O)c(C(=O)O)cn3C2CC2)CC1CN (racemic) | 0.12
CCn1cc(C(=O)O)c(=O)c2cc(F)c(N3CCNCC3)cc21 | 0.5
C[C@H]1COc2c(N3CCN(C)CC3)c(F)cc3c(=O)c(C(=O)O)cn1c23 | 0.25
N[C@@H]1[C@H]2CN(c3nc4c(cc3F)c(=O)c(C(=O)O)cn4-c3ccc(F)cc3F)C[C@@H]12 | 0.25

GET /value?item= Cc1c(F)c(N2CCNC(C)C2)cc2c1c(=O)c(C(=O)O)cn2C1CC1 (stereo not drawn) &field=MIC90 returns 0.25
